The reported measurements were obtained from patent US20240309103A1.

target: T1, hNPR1-mFc:hANP or hNPR1-hFc:hANP complex (human, UniProt P01160 124-151); test: SPR, mAb captured, 25C
T1 construct: also called human NPR1 complexed to ANP
assay.endpoint: t½

| binder | t½ |
| --- | --- |
| mAb22805 (antibody, human IgG4, V domains shown) VH: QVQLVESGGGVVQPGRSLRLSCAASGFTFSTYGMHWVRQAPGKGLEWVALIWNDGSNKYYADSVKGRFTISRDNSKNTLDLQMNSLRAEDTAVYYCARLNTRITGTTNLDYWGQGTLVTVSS VL: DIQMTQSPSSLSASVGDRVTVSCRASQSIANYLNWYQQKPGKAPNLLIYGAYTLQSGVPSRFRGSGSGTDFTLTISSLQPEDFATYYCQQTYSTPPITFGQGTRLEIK | 81.7 min |

Here is another binder to look at.
Query: Read off the recorded t½ for mAb22810 (antibody, human IgG4, V domains shown) VH: EVQLVESGGGLVKPGGSLRLSCVVSGFTFRIYTMNWVRQAPGKGLEWVASISSSSSFINYADSLKGRFTISRDNAQNSLYLQMNSLRAEDTAIYYCARAAGNDVLPGRMDVWGQGTSVTVSS VL: EIVLTQSPGTLSLSPGERATLSCRASQSVSSNYLAWYQQKPGQVPSLLIYGASSRATGIPDRFSGSGSGTDFTLTITRLEPEDFAVYYCQQYGISPWTFGQGTKVEIK
Response: 34 min
